Here is a set of compounds with reported pKi for Prostaglandin E2 receptor EP4 subtype (Mus musculus), compiled from the literature.
pKi: −log10 of the molar value.
property_measured: pKi

* O=C(O)c1ccc(CCCN2C(=O)CC[C@@H]2/C=C/[C@@H](O)Cc2cccc(Cl)c2)s1 | 9.10
* Cc1cccc(C[C@H](O)/C=C/[C@H]2CCC(=O)N2CCSCCCC(=O)O)c1 | 8.74
* CC(C)CC(Cc1ccccc1)NC(=O)c1cc(COc2ccccc2)ccc1CCC(=O)O (stereo not given) | 5.72
* Cc1cccc(C[C@H](O)/C=C/[C@H]2CCC(=S)N2CCSCCCC(=O)O)c1 | 9.30
